- System tested: human TLR9 (Homo sapiens, UniProt Q9NR96)
- Construct: host or cells: HEK-Blue cells (HEK293-derived reporter line)
- Sequence (Q9NR96 26-1032): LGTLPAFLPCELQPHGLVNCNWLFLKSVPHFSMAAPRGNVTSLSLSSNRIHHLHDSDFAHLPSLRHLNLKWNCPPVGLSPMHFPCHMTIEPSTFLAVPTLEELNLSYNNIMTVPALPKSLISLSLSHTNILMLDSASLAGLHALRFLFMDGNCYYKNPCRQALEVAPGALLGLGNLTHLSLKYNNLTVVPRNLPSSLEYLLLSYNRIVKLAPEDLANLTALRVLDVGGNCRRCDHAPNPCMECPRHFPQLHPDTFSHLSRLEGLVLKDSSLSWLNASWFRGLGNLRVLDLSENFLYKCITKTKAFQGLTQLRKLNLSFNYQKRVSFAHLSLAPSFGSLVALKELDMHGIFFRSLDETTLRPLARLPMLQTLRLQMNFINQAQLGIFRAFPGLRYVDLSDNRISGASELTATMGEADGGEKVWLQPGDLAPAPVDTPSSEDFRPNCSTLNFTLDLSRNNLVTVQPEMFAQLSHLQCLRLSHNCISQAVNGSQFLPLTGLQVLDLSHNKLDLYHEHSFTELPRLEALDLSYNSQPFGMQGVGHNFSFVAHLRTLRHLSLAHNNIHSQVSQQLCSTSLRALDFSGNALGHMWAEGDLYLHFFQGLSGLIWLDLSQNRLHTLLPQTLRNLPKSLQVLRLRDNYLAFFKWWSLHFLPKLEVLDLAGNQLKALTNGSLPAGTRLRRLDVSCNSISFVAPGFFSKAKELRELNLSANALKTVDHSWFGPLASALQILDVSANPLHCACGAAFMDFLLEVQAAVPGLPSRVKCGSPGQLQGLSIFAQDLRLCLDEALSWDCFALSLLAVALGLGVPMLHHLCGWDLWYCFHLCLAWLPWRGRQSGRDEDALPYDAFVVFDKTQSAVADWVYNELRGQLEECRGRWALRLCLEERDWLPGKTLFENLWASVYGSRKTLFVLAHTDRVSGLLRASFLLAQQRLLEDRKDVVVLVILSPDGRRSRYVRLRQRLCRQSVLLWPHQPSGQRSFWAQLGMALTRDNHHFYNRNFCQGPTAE
- Run description: TLR9 inhibition reporter assay (HEK-Blue cells, secreted embryonic alkaline phosphatase reporter)
- Format: cell-based
- Measurement setup: HEK-Blue cells overexpressing human TLR9, stimulated with ODN2006 5 nM; read-out: TLR 9 IC50
pIC50: −log10 of the molar value.
Threshold check on pIC50: at or above 7 gives Criterion met, strictly below gives Criterion not met.

Worked set:
compound="Cn1c(-c2ccc(S(C)(=O)=O)cc2)nc2ccc(C3CCN(C4CC5CCC(C4)N5C4COC4)CC3)c(F)c21 (centres unmarked) [Example 273]" qualitative_label="Criterion not met"
compound="COCCN1C2CCC1CC(N1CCC(c3cc4nc(-c5ccc(S(C)(=O)=O)cc5)n(C)c4cc3F)CC1)C2 (centres unmarked) [Example 257]" qualitative_label="Criterion met"
compound=COc1ccc(-c2nc3cc(C4CCN(C5CCN(CC(C)C)CC5)CC4)ccc3n2C)cc1OC qualitative_label="Criterion not met"
compound="COCCN1CCCC(N2CCC(c3cc(F)c4nc(-c5ccc(S(C)(=O)=O)cc5)n(C)c4c3)CC2)CC1 (single isomer, unassigned) [Example 303]" qualitative_label="Criterion met"

Query: Hi team, for `Cc1cc(-c2ccc(CN3CCC(N(C)C4CC4)CC3)c(F)c2)cc2c1nc(-c1ccc(S(C)(=O)=O)cc1)n2C` , is the recorded pIC50 at or above 7?
Result: Criterion not met

Query: Hi team, for COCCN1C2CCC1CC(N1CCC(c3cc4c(cc3F)nc(-c3ccc(S(C)(=O)=O)cc3)n4C)CC1)C2 (single isomer, unassigned) [Example 239] , is the recorded pIC50 at or above 7?
Result: Criterion not met

* * *

- System tested: human TLR7 (Homo sapiens, UniProt Q9NYK1)
- Sequence (Q9NYK1 27-1049): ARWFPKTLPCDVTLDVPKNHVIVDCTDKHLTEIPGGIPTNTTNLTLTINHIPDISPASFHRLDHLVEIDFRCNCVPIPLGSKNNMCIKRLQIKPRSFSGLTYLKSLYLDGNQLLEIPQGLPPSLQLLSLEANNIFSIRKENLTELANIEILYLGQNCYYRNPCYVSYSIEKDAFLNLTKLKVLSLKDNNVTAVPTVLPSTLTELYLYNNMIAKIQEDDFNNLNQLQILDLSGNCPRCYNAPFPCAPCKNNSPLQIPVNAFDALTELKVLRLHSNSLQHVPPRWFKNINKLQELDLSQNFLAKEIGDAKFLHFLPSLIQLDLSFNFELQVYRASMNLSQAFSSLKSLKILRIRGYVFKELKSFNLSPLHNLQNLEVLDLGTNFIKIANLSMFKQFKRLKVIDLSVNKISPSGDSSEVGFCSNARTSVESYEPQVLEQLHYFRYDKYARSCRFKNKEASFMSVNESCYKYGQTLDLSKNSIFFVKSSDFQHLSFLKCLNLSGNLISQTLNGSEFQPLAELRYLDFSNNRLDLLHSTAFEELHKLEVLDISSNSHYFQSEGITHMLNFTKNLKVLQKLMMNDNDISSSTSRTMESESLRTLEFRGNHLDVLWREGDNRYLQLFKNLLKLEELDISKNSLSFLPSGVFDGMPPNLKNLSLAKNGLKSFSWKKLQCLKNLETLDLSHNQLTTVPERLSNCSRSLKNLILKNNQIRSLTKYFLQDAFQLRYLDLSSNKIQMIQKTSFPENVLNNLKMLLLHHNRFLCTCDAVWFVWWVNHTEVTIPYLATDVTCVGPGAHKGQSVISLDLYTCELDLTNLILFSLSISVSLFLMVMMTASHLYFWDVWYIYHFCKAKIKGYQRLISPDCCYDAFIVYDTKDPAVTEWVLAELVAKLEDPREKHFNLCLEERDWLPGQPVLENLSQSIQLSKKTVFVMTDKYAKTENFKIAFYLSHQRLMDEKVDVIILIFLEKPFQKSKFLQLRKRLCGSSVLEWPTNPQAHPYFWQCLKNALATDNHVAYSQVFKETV
- Run description: TLR7 inhibition reporter assay (HEK-Blue cells, secreted embryonic alkaline phosphatase reporter)
- Measurement setup: HEK-Blue cells overexpressing human TLR7, stimulated with gardiquimod 7.5 μM; read-out: TLR 7 IC50
Readout name: IC50 (µM)
Give the quantity in µM, number only.

substance_smiles=COc1ccc(-c2nc3c(C)cc(C4CCN(C5CCN(CC(C)C)CC5)CC4)cc3n2C)cc1F readout_name=IC50 quantitative_result=7.7
substance_smiles=Cn1c(-c2ccc(S(C)(=O)=O)cc2)nc2cc(C3CCN(C4CCN(C5CCOCC5)CC4)CC3)cc(F)c21 readout_name=IC50 quantitative_result=18.3

Proceeding to the next molecule to report its IC50.
Query: Fill in reported IC50 for this entry: `Cc1cc(C2CCN(C3CCN(c4ccccc4)CC3)CC2)cc2c1nc(-c1ccc(S(C)(=O)=O)cc1)n2C`
Result: 10.2

* * *

- System tested: human TLR9 (Homo sapiens)
- Construct: host or cells: HEK-Blue cells (HEK293-derived reporter line)
- Run description: TLR9 inhibition reporter assay (HEK-Blue cells, secreted embryonic alkaline phosphatase reporter)
- Assay type: cell-based
- Measurement setup: HEK-Blue cells overexpressing human TLR9, stimulated with ODN2006 5 nM; read-out: TLR 9 IC50
Readout name: IC50

Known results for molecules:
molecule="COc1ccc(-c2nc3c(C)cc(C4CCN(C5CC6CCC(C5)N6C5CCOCC5)CC4)cc3n2C)cc1OC (single isomer, unassigned) [Example 166]" readout_name=IC50 result="40 nM"
molecule="Cc1cc(C2CCN(C3CC4CCC(C3)N4CC3CC3)CC2)cc2c1nc(-c1ccc(S(C)(=O)=O)cc1)n2C (single isomer, unassigned) [Example 155]" readout_name=IC50 result="163 nM"
molecule=CN(C)C1CCN(Cc2ccc(-c3ccc4nc(-c5ccc(S(C)(=O)=O)cc5F)n(C)c4c3)cc2)CC1 readout_name=IC50 result="174 nM"
molecule="Cc1cc(C2CCN(C3CCCN(CC4CC4)CC3)CC2)cc2c1nc(-c1ccc(S(C)(=O)=O)cc1)n2C (centres unmarked)" readout_name=IC50 result="19 nM"
molecule=Cc1cc(C2CCN(C3CC4(C3)CN(CC(C)C)C4)CC2)cc2c1nc(-c1ccc(S(C)(=O)=O)cc1)n2C readout_name=IC50 result="248 nM"
molecule="Cc1cc(C2CCN(C3CC4CCC(C3)N4C(C)C)CC2)cc2[nH]c(-c3ccc(S(C)(=O)=O)c(F)c3)nc12 (centres unmarked)" readout_name=IC50 result="180 nM"

Proceeding to the next molecule to report its IC50.
Query: Fill in reported IC50 for this entry: CC(C)CN1CCCC(N2CCC(c3cc(F)c4nc(-c5ccc(S(C)(=O)=O)cc5)n(C)c4c3)CC2)CC1 (centres unmarked) [Example 296]
Result: 22 nM
